Hey, just so you know, these numbers are from paper PMC6449189.

- Study system: LbCas12a (Lachnospiraceae bacterium ND2006, UniProt A0A5S8WF58 1-1228)
- Measurement protocol: EMSA
Quantity measured: Kd (nM)
Numbers only, in nM.

Noted for AAUUUCUACUAAGUGUAGAUAAAGUGCUCAUCAUUGGAAAACGU (structured_RNA) [LbCas12a crRNA (24-nt T1) rGJK_007] : its Kd reads 35.8
